# Type: in vitro ADME, Mice
# TEST_CONDITIONS: Mouse
*1 amine or outer side, *2 acyl side, *3 side chain or, on linkers, in order; H or OH if unused. Where a SMILES comes first, the peptide text is derived from it. [ ]: non-standard residue; d: D form. Trp(1-(1,1-Me2-allyl)) = C=CC(C)(C)n1cc(C[C@H](N)C(=O)O)c2ccccc21; Ala(3R-Me,3-isobutenyl) = CC(C)=C[C@@H](C)[C@H](N)C(=O)O; X3 = C#CCOc1ccc([C@@H](OC)[C@H](N[*:1])C(=O)[*:2])cc1; NMeTrp(1-Me) = CN[C@@H](Cc1cn(C)c2ccccc12)C(=O)O; NMeLeu(5-OH,4R) = CN[C@@H](C[C@@H](C)CO)C(=O)O; Phe(βR-OMe) = CO[C@H](c1ccccc1)[C@H](N)C(=O)O; Trp(1-Me) = Cn1cc(C[C@H](N)C(=O)O)c2ccccc21; NMeL = CN[C@@H](CC(C)C)C(=O)O
MEASURED_PARAMETER: Microsomal Stability Mouse QH

1. C=CC(C)(C)n1cc(C[C@@H]2NC(=O)[C@H]([C@H](C)C=C(C)C)NC(=O)[C@H](CC(C)C)N(C)C(=O)[C@H](C(C)C)NC(=O)[C@H]([C@H](OC)c3ccccc3)NC(=O)[C@H](C)NC(=O)[C@H](C[C@@H](C)CO)N(C)C2=O)c2ccccc21 [dCymC] (cyclo([Trp(1-(1,1-Me2-allyl))][NMeLeu(5-OH,4R)]A[Phe(βR-OMe)]V[NMeL][Ala(3R-Me,3-isobutenyl)])) : 56.100%
2. CO[C@H](c1ccccc1)[C@@H]1NC(=O)[C@H](C)NC(=O)[C@H](C[C@@H](C)CO)N(C)C(=O)[C@H](Cc2cn(C)c3ccccc23)N(C)C(=O)[C@H](CCC(=O)N(C)C)NC(=O)[C@H](CC(C)C)N(C)C(=O)[C@H](C(C)C)NC1=O [SI-76] (cyclo(A[Phe(βR-OMe)]V[NMeL]E(NMe2)[NMeTrp(1-Me)][NMeLeu(5-OH,4R)])) : >88.400%
3. CO[C@H](c1ccccc1)[C@@H]1NC(=O)[C@H](C)NC(=O)[C@H](C[C@@H](C)CO)N(C)C(=O)[C@H](Cc2cn(Cc3cn(CCCCCn4cc(Cn5cc(C[C@@H]6NC(=O)[C@H](C(C)C)NC(=O)[C@H](CC(C)C)N(C)C(=O)[C@H](C(C)C)NC(=O)[C@H]([C@H](OC)c7ccccc7)NC(=O)[C@H](C)NC(=O)[C@H](C[C@@H](C)CO)N(C)C6=O)c6ccccc65)nn4)nn3)c3ccccc23)NC(=O)[C@H](C(C)C)NC(=O)[C@H](CC(C)C)N(C)C(=O)[C@H](C(C)C)NC1=O : 24.7%
4. C#CCOc1ccc([C@@H](OC)[C@@H]2NC(=O)[C@H](C)NC(=O)[C@H](C[C@@H](C)CO)N(C)C(=O)[C@H](Cc3cn(C)c4ccccc34)NC(=O)[C@H](C(C)C)NC(=O)[C@H](CC(C)C)N(C)C(=O)[C@H](C(C)C)NC2=O)cc1 [SI-38] (cyclo(A[X3]V[NMeL]V[Trp(1-Me)][NMeLeu(5-OH,4R)])) : 72.800%
